test: NOD1 signaling inhibitors, primary screen, cell-based, luminescence, uHTS (AID 1578); conditions: NOD1-driven NF-kB luciferase reporter cells, at 4 µM, stronger effect = higher value;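 note: HEK-293T reporter cells stimulated with the NOD1 agonist gamma-tri-DAP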
About 3,000 (1%) of roughly 290,000 compounds were called active. This is one part of a sample in which actives are shown more often than they occur.
Listing: inhibition of selected compounds
Provide the reading as a plain figure in %.

Asked: Tell us which inhibition value is on record for Cc1nn(CC(=O)N2CCC(C(N)=O)CC2)c(=O)c2nn(-c3ccccc3)c(C)c12
Given back: -5.3

###

test: NOD1 signaling inhibitors, primary screen, cell-based, luminescence, uHTS (AID 1578); settings: NOD1-driven NF-kB luciferase reporter cells, at 4 µM;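 note: HEK-293T reporter cells stimulated with the NOD1 agonist gamma-tri-DAP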
The campaign covered roughly 290,000 compounds. About 3,000 (1%) were called active. No stated cut-off is given here; in the data, active means inhibition mostly above about 36% (no sharp cut-off); inactive means mostly below about 34%. Many of the other results were omitted from the sample, so actives are more common in it than they were.
Result category, one only: TRUE (active), FALSE (inactive)

Solved cases below.
1) Cc1ccc(NC(=O)c2cc3ccccc3oc2=O)cc1S(=O)(=O)N(C)C    TRUE
2) c1ccc2c(CCNc3ncnc4nc[nH]c34)c[nH]c2c1    FALSE
3) O=C(NNc1cc(Cl)ccc1Cl)C1CCC1    FALSE
4) Oc1ccc(Nc2ccnc3cc(Cl)ccc23)cc1    TRUE

Asked: Dear all, I need the recorded test outcome for CCN1C(=O)CSc2ccc(C(=O)NCc3ccco3)cc21 , thank you.
Given back: FALSE

Asked: In this assay, the call recorded for COc1ccc(C(=O)/C=C/c2ccc(OCc3ccccc3)cc2)cc1CSCC(=O)O was what?
Given back: FALSE

Asked: Can you look up the reported call for O=C(O)c1cc(N/N=C/c2ccc3c(c2)OCO3)ccc1Cl for me?
Given back: FALSE
